These entries and their values trace back to ChEMBL document CHEMBL3885861.

# Species: Rattus norvegicus
# ASSAY_NAME: Open TG-GATES - Regimen: Single
# Type: toxicity, organism-based, Sprague-Dawley
# Set-up: regimen Single, gender Male, age 6 weeks
# APPLIED_CONDITIONS: in vivo, po, 100 mg/kg, 3 h, tissue Liver, route gavage, dose level Low
Each entry below carries its reported LIVER.

{"COMPOUND": "CN/C(=N/CCSCc1nc[nH]c1C)NC#N [CIMETIDINE]", "LIVER (g)": 10}
{"COMPOUND": "COC(=O)C1=C(C)NC(C)=C(C(=O)OC)C1c1ccccc1[N+](=O)[O-] [NIFEDIPINE]", "LIVER (g)": 7.9}
{"COMPOUND": "CNC(=C[N+](=O)[O-])NCCSCc1ccc(CN(C)C)o1 [RANITIDINE]", "LIVER (g)": 10.3}
{"COMPOUND": "Cc1nnc2n1-c1ccc(Cl)cc1C(c1ccccc1Cl)=NC2 [TRIAZOLAM]", "LIVER (g)": 8}
{"COMPOUND": "O=C(OC[C@H]1O[C@@H](OC(=O)c2cc(O)c(O)c(OC(=O)c3cc(O)c(O)c(O)c3)c2)[C@H](OC(=O)c2cc(O)c(O)c(OC(=O)c3cc(O)c(O)c(O)c3)c2)[C@@H](OC(=O)c2cc(O)c(O)c(OC(=O)c3cc(O)c(O)c(O)c3)c2)[C@@H]1OC(=O)c1cc(O)c(O)c(OC(=O)c2cc(O)c(O)c(O)c2)c1)c1cc(O)c(O)c(OC(=O)c2cc(O)c(O)c(O)c2)c1 [TANNIC ACID]", "LIVER (g)": 8.6}

###

Each entry below carries its reported KIDNEY_L.
# Species: Rattus norvegicus
# ASSAY_NAME: Open TG-GATES - Regimen: Daily Repeat
# Type: toxicity, organism-based, Sprague-Dawley
# Design: regimen Daily Repeat, gender Male, age 6 weeks
# APPLIED_CONDITIONS: in vivo, po, 1000 mg/kg, 72 h, tissue Kidney, route gavage, dose level High, time 3 day
EXPERIMENTAL_READOUT: KIDNEY_L (g)

{"COMPOUND": "CNC(=C[N+](=O)[O-])NCCSCc1ccc(CN(C)C)o1 [RANITIDINE]", "EXPERIMENTAL_READOUT": "KIDNEY_L", "ENDPOINT_RESULT": 1}
{"COMPOUND": "Cc1nnc2n1-c1ccc(Cl)cc1C(c1ccccc1Cl)=NC2 [TRIAZOLAM]", "EXPERIMENTAL_READOUT": "KIDNEY_L", "ENDPOINT_RESULT": 1}
{"COMPOUND": "CCOc1ccc(NC(C)=O)cc1 [PHENACETIN]", "EXPERIMENTAL_READOUT": "KIDNEY_L", "ENDPOINT_RESULT": 1}
{"COMPOUND": "O=C(OC[C@H]1O[C@@H](OC(=O)c2cc(O)c(O)c(OC(=O)c3cc(O)c(O)c(O)c3)c2)[C@H](OC(=O)c2cc(O)c(O)c(OC(=O)c3cc(O)c(O)c(O)c3)c2)[C@@H](OC(=O)c2cc(O)c(O)c(OC(=O)c3cc(O)c(O)c(O)c3)c2)[C@@H]1OC(=O)c1cc(O)c(O)c(OC(=O)c2cc(O)c(O)c(O)c2)c1)c1cc(O)c(O)c(OC(=O)c2cc(O)c(O)c(O)c2)c1 [TANNIC ACID]", "EXPERIMENTAL_READOUT": "KIDNEY_L", "ENDPOINT_RESULT": 1}
{"COMPOUND": "CN/C(=N/CCSCc1nc[nH]c1C)NC#N [CIMETIDINE]", "EXPERIMENTAL_READOUT": "KIDNEY_L", "ENDPOINT_RESULT": 1}
{"COMPOUND": "COC(=O)C1=C(C)NC(C)=C(C(=O)OC)C1c1ccccc1[N+](=O)[O-] [NIFEDIPINE]", "EXPERIMENTAL_READOUT": "KIDNEY_L", "ENDPOINT_RESULT": 0.9}
